assay: Pharmacokinetic test in mice; assay type: in vivo, ICR mice; conditions: mouse, in vivo, po, plasma, i.g. (10 mg/kg)
Assay endpoint: half-life (min)
Just the number please, in min, no unit attached.

Q: Supply recorded half-life for C=C1CCN(S(=O)(=O)Nc2ccc(F)c(Oc3ccc4ncn(CC(F)F)c(=O)c4c3)c2C#N)C1 here.
Ans: 268

----------
experiment: Pharmacokinetic test in mice; assay type: in vivo, ICR mice; conditions: i.g. (10 mg/kg), relative to Control compound 1
Assay endpoint: Fold change in brain-blood ratio relative to control compound
Returns: the value as a bare number; no unit string appended.

Q: Supply recorded Fold change in brain-blood ratio relative to control compound for CC(F)=C1CN(S(=O)(=O)Nc2ccc(F)c(Oc3ccc4ncn(CC(F)F)c(=O)c4c3)c2C#N)C1 here.
Ans: 8.1

Q: Supply recorded Fold change in brain-blood ratio relative to control compound for C=C1CCN(S(=O)(=O)Nc2ccc(F)c(Oc3ccc4ncn(CC(F)F)c(=O)c4c3)c2C#N)C1 here.
Ans: 24.9

Q: Supply recorded Fold change in brain-blood ratio relative to control compound for C=C1CN(S(=O)(=O)Nc2ccc(F)c(Oc3ccc4ncn(CC(F)F)c(=O)c4c3)c2C#N)C1 here.
Ans: 10.8
